Target: Y641N EZH2 (Homo sapiens, UniProt Q15910, Y641N)
Sequence (Q15910 whole entry Y641N): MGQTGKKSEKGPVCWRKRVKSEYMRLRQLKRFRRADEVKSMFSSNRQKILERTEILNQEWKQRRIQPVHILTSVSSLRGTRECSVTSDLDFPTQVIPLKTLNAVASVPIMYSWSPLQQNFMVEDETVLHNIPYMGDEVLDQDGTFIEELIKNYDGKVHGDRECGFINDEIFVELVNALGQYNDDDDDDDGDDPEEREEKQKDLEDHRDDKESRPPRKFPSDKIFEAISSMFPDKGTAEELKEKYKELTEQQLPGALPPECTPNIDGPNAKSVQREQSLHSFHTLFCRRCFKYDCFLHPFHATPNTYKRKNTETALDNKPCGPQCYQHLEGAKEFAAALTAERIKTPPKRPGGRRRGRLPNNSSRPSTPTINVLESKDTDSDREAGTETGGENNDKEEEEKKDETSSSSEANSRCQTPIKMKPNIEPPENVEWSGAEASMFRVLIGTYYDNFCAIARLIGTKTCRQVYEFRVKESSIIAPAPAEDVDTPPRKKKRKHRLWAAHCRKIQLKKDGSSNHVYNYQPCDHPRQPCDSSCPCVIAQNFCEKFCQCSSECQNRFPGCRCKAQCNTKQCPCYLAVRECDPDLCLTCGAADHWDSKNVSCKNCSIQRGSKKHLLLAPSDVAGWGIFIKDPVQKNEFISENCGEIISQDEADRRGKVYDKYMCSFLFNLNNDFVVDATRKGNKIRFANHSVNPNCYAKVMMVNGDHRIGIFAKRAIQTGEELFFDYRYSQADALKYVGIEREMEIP
Sequence (O75530 whole entry partner): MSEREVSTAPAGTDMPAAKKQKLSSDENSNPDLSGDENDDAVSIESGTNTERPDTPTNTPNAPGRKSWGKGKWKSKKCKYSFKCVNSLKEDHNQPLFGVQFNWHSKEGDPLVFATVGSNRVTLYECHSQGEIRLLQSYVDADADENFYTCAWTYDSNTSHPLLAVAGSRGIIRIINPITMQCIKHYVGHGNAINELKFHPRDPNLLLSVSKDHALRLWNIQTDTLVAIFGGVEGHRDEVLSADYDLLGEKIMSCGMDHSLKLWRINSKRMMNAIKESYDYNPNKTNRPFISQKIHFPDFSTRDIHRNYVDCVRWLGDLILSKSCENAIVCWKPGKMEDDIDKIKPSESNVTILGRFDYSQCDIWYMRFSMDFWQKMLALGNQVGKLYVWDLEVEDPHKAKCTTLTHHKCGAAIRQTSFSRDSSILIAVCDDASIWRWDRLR
Sequence (Q15022 whole entry partner): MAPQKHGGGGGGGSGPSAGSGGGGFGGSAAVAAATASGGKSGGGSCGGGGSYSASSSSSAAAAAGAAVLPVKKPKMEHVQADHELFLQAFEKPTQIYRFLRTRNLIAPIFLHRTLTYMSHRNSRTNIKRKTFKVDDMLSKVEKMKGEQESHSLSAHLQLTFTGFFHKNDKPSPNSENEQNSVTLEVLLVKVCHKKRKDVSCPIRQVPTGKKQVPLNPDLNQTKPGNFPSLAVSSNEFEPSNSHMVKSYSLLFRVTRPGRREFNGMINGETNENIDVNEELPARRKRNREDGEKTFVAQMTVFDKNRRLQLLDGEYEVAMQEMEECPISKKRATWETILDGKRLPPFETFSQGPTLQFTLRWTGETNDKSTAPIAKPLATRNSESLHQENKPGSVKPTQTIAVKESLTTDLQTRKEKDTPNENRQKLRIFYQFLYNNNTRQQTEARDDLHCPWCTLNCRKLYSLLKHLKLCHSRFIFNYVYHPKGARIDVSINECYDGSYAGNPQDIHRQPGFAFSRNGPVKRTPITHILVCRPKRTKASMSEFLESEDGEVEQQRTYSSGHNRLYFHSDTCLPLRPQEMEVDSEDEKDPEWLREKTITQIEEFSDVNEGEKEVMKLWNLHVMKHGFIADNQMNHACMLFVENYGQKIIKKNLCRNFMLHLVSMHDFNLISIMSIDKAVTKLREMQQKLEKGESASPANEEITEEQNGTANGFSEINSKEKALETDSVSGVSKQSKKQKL
Assay: Y641N EZH2 assay: performed as the EZH2 assay, using reconstituted H3K27Me2 oligonucleosomes as substrate
pIC50: −log10 of the molar value.
Listing of entries alongside the reported pIC50.
observable: pIC50

CN(C)C(=O)Cn1cc(-c2cccc(Oc3ccc(C(=O)NC4CC(C)(C)NC(C)(C)C4)cc3Cl)c2C#N)cn1: 4.70 to 5.30
CC1(C)CC(NC(=O)c2ccc(Oc3cccc(-c4ccnc(C#N)c4)c3C#N)c(Cl)c2)CC(C)(C)N1: > 5.30
CC1(C)CC(NC(=O)c2ccc(Oc3ccccc3-c3cnc4ccccc4c3)c(Cl)c2)CC(C)(C)N1: 4.70 to 5.30
CN(C)c1cccc(Oc2ccc(C(=O)NC3CC(C)(C)NC(C)(C)C3)cc2Cl)c1C#N: 4.70 to 5.30
CC1(C)CC(NC(=O)c2ccc(Oc3cccc(-c4ccc(N)nc4)c3)cc2)CC(C)(C)N1: < 4.10
CC1(C)CC(NC(=O)c2ccc(Oc3cccc(-c4ccnc(N)c4)c3C#N)c(Cl)c2)CC(C)(C)N1: > 5.30
CC1(C)CC(NC(=O)c2ccc(Oc3cccc(-c4cncnc4)c3C#N)c(Cl)c2)CC(C)(C)N1: 4.70 to 5.30
Cc1cnccc1-c1cccc(Oc2ccc(C(=O)NC3CC(C)(C)NC(C)(C)C3)cc2Cl)c1C#N: > 5.30
CC1(C)CC(OC(=O)c2ccc(Oc3cccc(-c4ccnnc4)c3C#N)c(Cl)c2)CC(C)(C)N1: > 5.30
CC(Oc1cccc(Oc2ccc(C(=O)NC3CC(C)(C)NC(C)(C)C3)cc2Cl)c1C#N)C(N)=O (stereo not drawn): < 4.10
CC1(C)CC(NC(=O)c2ccc(Oc3cccc(-c4ccnnc4)c3C#N)c(Cl)c2)CC(C)(C)C1=O: < 4.10
CC1(C)CC(NC(=O)c2ccc(Oc3cccc(-c4ccnc(O)c4)c3C#N)c(Cl)c2)CC(C)(C)N1: > 5.30
CC1(C)CC(NC(=O)c2ccc(Oc3cccc(N4CCCC4=O)c3)c(Cl)c2)CC(C)(C)N1: < 4.10
CC1(C)CC(NC(=O)c2ccc(COc3ccccc3Br)cc2)CC(C)(C)N1: < 4.10
CC1(C)CC(NC(=O)c2ccc(Oc3cccc4c3CCNC4)c(Cl)c2)CC(C)(C)N1: 4.10 to 4.70
CC1(C)CC(NC(=O)c2ccc(Oc3ccccc3-c3cccnc3)c(Cl)c2)CC(C)(C)N1: 4.10 to 4.70
CC1(C)CC(NC(=O)c2ccc(Oc3cccc(-c4cn[nH]c4)c3C#N)c(Cl)c2)CC(C)(C)N1: > 5.30
CC(=O)Nc1ccc(-c2cccc(OCc3ccc(C(=O)NC4CC(C)(C)NC(C)(C)C4)cc3)c2)cc1: 4.10 to 4.70
CC1(C)CC(NC(=O)c2ccc(Oc3cccc(-c4ccncc4Cl)c3C#N)c(Cl)c2)CC(C)(C)N1: > 5.30
CC1(C)CC(NC(=O)c2ccc(Oc3cccc(-c4ccnnc4)c3C#N)c(Cl)c2)CC(C)(C)S1(=O)=O: < 4.10
CC1(C)CC(NC(=O)N2CCC(Oc3cccc(-c4cn[nH]c4)c3C#N)CC2)CC(C)(C)N1: < 4.10
CC1(C)CC(NC(=O)c2ccc(Oc3cccc(I)c3C#N)c(Cl)c2)CC(C)(C)N1: > 5.30
CC1(C)CC(NC(=O)c2ccc(Oc3cccc(-c4ccccn4)c3C#N)c(Cl)c2)CC(C)(C)N1: > 5.30
CC1(C)CC(NC(=O)c2ccc(Oc3cccc(N4CCOCC4)c3)c(Cl)c2)CC(C)(C)N1: < 4.10
CN(C)c1ccc(-c2cccc(OCc3ccc(C(=O)NC4CC(C)(C)NC(C)(C)C4)cc3)c2)cn1: 4.10 to 4.70
CC1(C)CC(NC(=O)c2ccc(Oc3cccc(C4CCCO4)c3C#N)c(Cl)c2)CC(C)(C)N1 (stereo not drawn): < 4.10
CC1(C)CC(NC(=O)c2ccc(Oc3cccc(-c4ccncn4)c3C#N)c(Cl)c2)CC(C)(C)N1: > 5.30
CC1(C)CC(NC(=O)c2ccc(Oc3cccc(-c4cncc(C#N)c4)c3C#N)c(Cl)c2)CC(C)(C)N1: > 5.30
CC1(C)CC(NC(=O)c2ccc(Oc3cccc(-c4cn[nH]c4)c3C#N)c(Br)c2)CC(C)(C)N1: > 5.30
CC1(C)CC(NC(=O)c2ccc(Oc3cccc(Cl)c3C#N)c(Cl)c2)CC(C)(C)N1: > 5.30

###

Biological target: EZH2 (Homo sapiens, UniProt Q15910)
Sequence (Q15910 whole entry): as the sequence (Q15910 whole entry Y641N) above, with N641Y counted along it
Sequence (O75530 whole entry partner): as the sequence (O75530 whole entry partner) above
Sequence (Q15022 whole entry partner): as the sequence (Q15022 whole entry partner) above
Assay: EZH2 assay: rPRC2 with biotinylated oligonucleosome substrates and 3H SAM, FlashPlate scintillation counting, IC50
Type: biochemical
Conditions: rPRC2, biotinylated oligonucleosome substrates, 3H SAM; read-out: EZH2 IC50
pIC50: −log10 of the molar value.
Listing of entries alongside the reported pIC50.
observable: pIC50

Cc1cc(-c2cccc(Oc3ccc(C(=O)NC4CC(C)(C)NC(C)(C)C4)cc3Cl)c2C#N)cc(C)n1 [Compound I-585]: > 5.30
CC1(C)CC(NC(=O)c2ccc(Oc3ccccc3C(=O)O)c(Cl)c2)CC(C)(C)N1 [Compound I-353]: < 4.10
CC1(C)CC(NC(=O)c2ccc(Oc3ccccc3C(=O)N3CCCC3)c(Cl)c2)CC(C)(C)N1 [Compound I-233]: < 4.10
CC1(C)CC(NC(=O)c2ccc(-n3cnc4ccccc43)c(Cl)c2)CC(C)(C)N1 [Compound I-303]: < 4.10
Cc1ccc(C#N)c(Oc2ccc(C(=O)NC3CC(C)(C)NC(C)(C)C3)cc2)c1 [Compound I-158]: 4.10 to 4.70
CC1(C)CC(NC(=O)c2ccc(COc3cccc(C#N)c3)cc2)CC(C)(C)N1 [Compound I-76]: < 4.10
CC1(C)CC(N2CCc3cc(Oc4ccccc4C#N)c(Cl)cc3C2=O)CC(C)(C)N1 [Compound I-163]: 4.10 to 4.70
CC1(C)CC(NC(=O)c2ccc(Nc3ccccc3)cc2)CC(C)(C)N1 [Compound I-107]: < 4.10

###

Target: EZH2 (Homo sapiens, UniProt Q15910)
Test: EZH2 assay: rPRC2 with biotinylated oligonucleosome substrates and 3H SAM, FlashPlate scintillation counting, IC50
Format: biochemical
Conditions: rPRC2, biotinylated oligonucleosome substrates, 3H SAM; read-out: EZH2 IC50
observable: IC50

CC1(C)CC(NC(=O)c2ccc(Oc3cccc(C4CCCO4)c3C#N)c(Cl)c2)CC(C)(C)N1 (centres unmarked) [Compound I-560]: < 5 µM
CC1(C)CC(NC(=O)c2ccc(COc3cccc4cnccc34)cc2)CC(C)(C)N1 [Compound I-182]: 5 to 20 µM
CC1(C)CC(NC(=O)c2ccc(Oc3ccccc3-c3cncnc3)c(Cl)c2)CC(C)(C)N1 [Compound I-279]: < 5 µM
CC1(C)CC(NC(=O)c2ccc(Oc3ncccc3C#N)c(Br)c2)CC(C)(C)N1 [Compound I-220]: < 5 µM
CN(C)c1ccc(-c2cccc(OCc3ccc(C(=O)NC4CC(C)(C)NC(C)(C)C4)cc3)c2)cn1 [Compound I-154]: 20 to 80 µM
CC1(C)CC(NC(=O)c2ccc(CSc3ccccc3)cc2)CC(C)(C)N1 [Compound I-83]: > 80 µM
CC1(C)CC(NC(=O)c2ccc(SC3CCCCC3)cc2)CC(C)(C)N1 [Compound I-145]: 20 to 80 µM
CC1CC(NC(=O)c2ccc(Oc3cccc(-c4ccnnc4)c3C#N)c(Cl)c2)CC(C)(C)N1 (centres unmarked) [Compound I-478]: < 5 µM

###

Target: EZH2 (Homo sapiens, UniProt Q15910)
Assay: EZH2 assay: rPRC2 with biotinylated oligonucleosome substrates and 3H SAM, FlashPlate scintillation counting, IC50
Assay type: biochemical
Conditions: rPRC2, biotinylated oligonucleosome substrates, 3H SAM; read-out: EZH2 IC50
Listing of entries alongside the reported IC50.
observable: IC50

CC1(C)CC(NC(=O)c2ccc(Oc3cccc(N4CCOCC4=O)c3)c(Cl)c2)CC(C)(C)N1 [Compound I-397]: 5 to 20 µM
CC1(C)CC(NC(=O)c2ccc(Oc3cccc(-c4ccnnc4)c3C#N)c(Cl)c2)CC(C)(C)S1 [Compound I-517]: 5 to 20 µM
CC1(C)CC(NC(=O)c2ccc(COc3cccc(-c4ccc(NC(=O)C5CC5)nc4)c3)cc2)CC(C)(C)N1 [Compound I-153]: 20 to 80 µM
CC1(C)CC(NC(=O)c2ccc(COc3ccnc(Cl)c3)cc2)CC(C)(C)N1 [Compound I-66]: 20 to 80 µM
CC1(C)CC(NC(=O)c2ccc(Oc3cccc4c3C(=O)NCC4)c(Cl)c2)CC(C)(C)N1 [Compound I-525]: 5 to 20 µM
CC1(C)CC(NC(=O)c2ccc(Oc3ccccc3C#N)cc2)CC(C)(C)N1 [Compound I-6]: < 5 µM
CC1(C)CC(NC(=O)c2ccc(Cn3ccnc3)cc2)CC(C)(C)N1 [Compound I-404]: > 80 µM
CC1(C)CC(NC(=O)c2ccc(C3(c4ccccc4)CC3)cc2)CC(C)(C)N1 [Compound I-437]: > 80 µM
